# credit: the supplement of paper PMC10567573

B1: ATL3 (parent)
chain: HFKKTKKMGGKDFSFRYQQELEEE

Variants of: B1
experimental.details: protein stability index of a GFP-peptide fusion (GPS, HEK-293T) (PSI 1-6); higher = more stable;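 also: lentivirally expressed fusions sorted by FACS into six bins by GFP to DsRed ratio, PSI derived from sequencing read proportions per bin multiplied by bin number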
run.parameters: c terminus: a fixed tail appended
# if value of protein stability index reaches 3, tag t; if it stays below, tag f

Recorded results for 5 variants are shown here.
INSERT INTO assay_data (mutant, category) VALUES
  ('K3I', 'f'),
  ('E24Q', 'f'),
  ('D12S', 'f'),
  ('T5C', 'f'),
  ('S14F', 't');

Problem: Decide: protein stability index of R16T >= 3?
Result: t

Problem: Kindly determine if protein stability index recorded for K6Q is above or exactly 3.
Result: f

Problem: Say whether E23D shows protein stability index of 3 or more.
Result: f

Problem: Could you please find out whether K7C has protein stability index that meets 3 or exceeds it?
Result: f

Problem: Could you tell me if the measured protein stability index of K11F reaches 3 or more?
Result: f

Problem: Test whether the variant R16L records protein stability index of 3 or higher.
Result: f

Problem: Decide: protein stability index of R16P >= 3?
Result: t

Problem: Does protein stability index meet or surpass 3 for K4E ?
Result: f

Problem: I'd appreciate it if you could say whether S14H has protein stability index at least equal to 3.
Result: t
